All figures here come from BindingDB's records for PubMed 25415869.

molecular target: Serine/threonine-protein kinase PAK 1 (Homo sapiens); assay: Inhibition of PAK1 (unknown origin) in presence of ATP by Z-LYTE enzymatic kinase assay
QUANTITY: IC50 (nM)

[I] CCn1c(=O)c(-c2ccc(Cl)cc2Cl)cc2cnc(Nc3ccc(N4CCN(C)CC4)cc3)nc21
[II] CN1CCN(c2ccc(Nc3ncc4ccc(=O)n(C5CCCC5)c4n3)cc2)CC1 [Pyrido[2,3-d]pyrimidin-7-one 1]
Out of I and II , name the one with the higher IC50. Bench note: the answer is the label of the chosen record.
II
(II: 483 nM, I: 20 nM)

----------
molecular target: Serine/threonine-protein kinase PAK 1 (Homo sapiens) (UniProt Q13153); experiment: Inhibition of PAK1 (unknown origin)
Sequence (Q13153 whole entry, looked up): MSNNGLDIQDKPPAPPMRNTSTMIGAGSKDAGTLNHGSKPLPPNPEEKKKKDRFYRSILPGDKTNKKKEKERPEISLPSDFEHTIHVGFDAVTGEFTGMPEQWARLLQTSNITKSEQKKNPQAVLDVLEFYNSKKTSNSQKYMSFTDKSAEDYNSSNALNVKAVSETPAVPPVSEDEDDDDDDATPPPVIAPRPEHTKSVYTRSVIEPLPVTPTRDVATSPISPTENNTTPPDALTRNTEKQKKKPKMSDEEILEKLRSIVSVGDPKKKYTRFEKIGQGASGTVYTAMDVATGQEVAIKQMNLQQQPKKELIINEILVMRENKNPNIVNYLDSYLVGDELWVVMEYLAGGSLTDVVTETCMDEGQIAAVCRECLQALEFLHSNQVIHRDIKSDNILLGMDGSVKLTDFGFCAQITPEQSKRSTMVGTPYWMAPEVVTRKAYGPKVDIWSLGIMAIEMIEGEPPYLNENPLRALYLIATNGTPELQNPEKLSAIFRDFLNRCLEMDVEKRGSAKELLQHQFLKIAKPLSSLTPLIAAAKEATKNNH
QUANTITY: IC50 (nM)

[P] CCN(Cc1ccc2[nH]cnc2c1Cl)c1nccc(Nc2cc(C(C)C)[nH]n2)n1
[Q] CCn1c(=O)c(-c2ccc(-c3noc(C)n3)cc2Cl)cc2cnc(Nc3ccc(C4CCN(C)CC4)cc3)nc21
In the pair P and Q , the larger recorded IC50 belongs to which? Returns: label corresponding to the selected item.
Q
(Q: 4 nM, P: 1.6 nM)

[I] CN(Cc1ccc2[nH]ccc2n1)c1nccc(Nc2cc([C@H]3C[C@@H]3F)[nH]n2)n1
[II] CCN1c2ccc(F)cc2N=C(N2CCN(C)CC2)c2cc(Cl)ccc21
Min IC50? I | II Lab note: record the label of whichever item you select.
I

----------
target: Serine/threonine-protein kinase PAK1; test: Inhibition of human recombinant PAK1 using KKRNRRLSVA as substrate assessed as inhibition constant preincubated with compound for 10 mins followed by substrate addition and measured after 60 mins by FRET assay
QUANTITY: pKi
The value called pKi is obtained by taking minus log10 of the concentration in mol/L.

Supply pKi value. Item: `Cc1nc2ccc(C#CC(C)(C)O)cc2n1-c1ncnc(N)n1`
4.82

----------
biological target: Serine/threonine-protein kinase PAK 1 (Homo sapiens) (UniProt Q13153); assay: Inhibition of PAK1 (unknown origin) using 5-FAM-KPDRKKRYTVVGNPY-amide as substrate incubated for 120 mins by caliper off-chip mobility shift assay
QUANTITY: pIC50
Schema: pIC50 number; meaning minus log10 of the concentration expressed in molar units.

Provide the reported pIC50 (system: Serine/threonine-protein kinase PAK 1 (Homo sapiens) (UniProt Q13153)) for `O=C(c1ccccc1Cl)c1n[nH]c2ncc(-c3cnn(C4CCNCC4)c3)cc12`
7.70

----------
biological target: Serine/threonine-protein kinase PAK 1 (Homo sapiens) (UniProt Q13153); test: Inhibition of PAK1 (unknown origin) in presence of ATP
pIC50: −log10 of the molar value.
QUANTITY: pIC50

Return pIC50 (reported value) for this compound: `O=C1NC(=O)c2cc(-c3ccccn3)ccc21`
< 4.00
